Target: T1, cynomolgus monkey B7-H4 (cynomolgus monkey, UniProt A0A2K5U6P5 25-282)
T1 construct: whole, on cells; also called CHO-K1/cyno B7-H4; CHO-K1/cynoB7H4
T1 sequence: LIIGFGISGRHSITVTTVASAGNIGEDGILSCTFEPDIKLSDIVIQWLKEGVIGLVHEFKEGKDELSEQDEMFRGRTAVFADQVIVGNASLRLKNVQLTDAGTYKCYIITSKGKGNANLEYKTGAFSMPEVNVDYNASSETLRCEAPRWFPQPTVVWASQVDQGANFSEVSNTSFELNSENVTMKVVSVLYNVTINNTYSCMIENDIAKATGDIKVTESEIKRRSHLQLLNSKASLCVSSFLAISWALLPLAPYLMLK
Assay: FACS, CHO-K1/cyno B7H4 cells [B]
measurement-type: Maximum MFI (MFI)
Give the value, in units of MFI, as a plain number.

>  <binder>
control antibody 1 (PR000157) (antibody, V domains shown, also called Positive control 1; 1D11.v1.9varC2) VH: EVQLVQSGAEVKKPGASVKVSCKASGYTFTSYWIGWVRQAPGQGLEWIGDIYPGGGYTNYNEKFKGRVTITRDTSTSTAYLELSSLRSEDTAVYYCARLAGSSYRGAMDSWGQGTLVTVSS VL: DIQMTQSPSSLSASVGDRVTITCKASQGFNKYVAWYQQKPGKAPKLLIYYTSTLQPGVPSRFSGSGSGRDYTLTISSLQPEDFATYYCLQYGDLLYAFGQGTKVEIKR

>  <units-of-measure>
MFI

>  <value>
1.99e+06

$$$$
>  <binder>
PR002410 (antibody, human IgG1, kappa, V domains shown, anti-B7-H4 H2L2 recombinant fully human antibody, human IgG1 / kappa; also called PR002037 variant) VH: QVQLVQSGAEVKKPGSSMRVSCKASEDTFSSYAISWVRQAPGQGLEWMGGTAPIFGTTNYAQKFQGRVTITADKSTSTAYMELSSLRSEDTAVYYCARGGPYFDYWGQGTLVTVSS VL: EIVMTQSPASLSVSPGERATLSCRASQSVSSNLAWYQQKPGQAPRLLIYGASTRATGIPARVSGGGSGTEFTLTISSLQSEDFAVYYCQQYKNWPFTFGPGTKLEIKR

>  <units-of-measure>
MFI

>  <value>
1.86e+06

$$$$
>  <binder>
PR001476 (antibody, human IgG1, kappa, V domains shown, anti-B7-H4 H2L2 recombinant fully human antibody, human IgG1 / kappa; also called 80C8-2E9 clone) VH: QVQLVESGGGVVQPGRSLRLSCAASGFTFRSFGMHWVRQAPGKGLEWVAVISYDGSNEYYADSVKGRFIISRDNSKDTLYLQMNSLRAGDTAVYYCAKGGGLRWYFAYWGQGTLVTVSS VL: EIVMTQSPATLSVSPGERATLSCRASQSISSNLGWYQQKPGQAPRLLIYGASTRATGIPARFSGSGSGTEFTLTISSLQSEDFAVYYCQQYNSWPPLTFGGGTKVEIKR

>  <units-of-measure>
MFI

>  <value>
1.82e+06

$$$$

Continue with the binder presented below.
Give recorded Maximum MFI. PR002037 (antibody, human IgG1, kappa, V domains shown, also called 1025_B-1H11 clone) VH: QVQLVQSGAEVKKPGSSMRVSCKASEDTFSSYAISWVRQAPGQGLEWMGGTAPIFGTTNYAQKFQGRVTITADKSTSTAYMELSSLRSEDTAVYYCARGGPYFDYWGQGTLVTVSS VL: EIVMTQSPASLSVSPGERATLSCRASQSVSSNLAWYQQKPGQAPRLLIYGASTRATGIPARVSGGGSGTEFTLTISSLQSEDFAVYCCQQYKNWPFTFGPGTKLEIKR
1.92e+06
